Where these numbers come from: patent US6903116B2

tested on: SV40 early promoter; experiment: Reporter protein expression suppression, stable transformant B (SV40 early promoter β-galactosidase); format: cell-based, Chinese hamster; conditions: 50 μM; heat shock 42° C. 90 min; relative to DMSO
Label class 1 when Expression Rate (%) Transformant B is at or above 80%; otherwise label class 0.

These recorded examples may help you get a feel for the data.
O=CN1CC/C(=C\c2ccc3c(c2)OCO3)C1=O; class 0
CC(=O)N1CCC(=Cc2ccc3c(c2)OCO3)C1=O; class 1
O=C1NCCC/C1=C\c1ccc2c(c1)OCO2; class 0

Now turn to the next molecule.
Ask: Quick check, Expression Rate (%) Transformant B >= 80%? O=C1NCC/C1=C\c1ccc2c(c1)OCO2
Reply: class 0
